# Test system: EGFR L858R (Homo sapiens (Human), UniProt P00533, L858R)
# Sequence (P00533 25-1210 L858R): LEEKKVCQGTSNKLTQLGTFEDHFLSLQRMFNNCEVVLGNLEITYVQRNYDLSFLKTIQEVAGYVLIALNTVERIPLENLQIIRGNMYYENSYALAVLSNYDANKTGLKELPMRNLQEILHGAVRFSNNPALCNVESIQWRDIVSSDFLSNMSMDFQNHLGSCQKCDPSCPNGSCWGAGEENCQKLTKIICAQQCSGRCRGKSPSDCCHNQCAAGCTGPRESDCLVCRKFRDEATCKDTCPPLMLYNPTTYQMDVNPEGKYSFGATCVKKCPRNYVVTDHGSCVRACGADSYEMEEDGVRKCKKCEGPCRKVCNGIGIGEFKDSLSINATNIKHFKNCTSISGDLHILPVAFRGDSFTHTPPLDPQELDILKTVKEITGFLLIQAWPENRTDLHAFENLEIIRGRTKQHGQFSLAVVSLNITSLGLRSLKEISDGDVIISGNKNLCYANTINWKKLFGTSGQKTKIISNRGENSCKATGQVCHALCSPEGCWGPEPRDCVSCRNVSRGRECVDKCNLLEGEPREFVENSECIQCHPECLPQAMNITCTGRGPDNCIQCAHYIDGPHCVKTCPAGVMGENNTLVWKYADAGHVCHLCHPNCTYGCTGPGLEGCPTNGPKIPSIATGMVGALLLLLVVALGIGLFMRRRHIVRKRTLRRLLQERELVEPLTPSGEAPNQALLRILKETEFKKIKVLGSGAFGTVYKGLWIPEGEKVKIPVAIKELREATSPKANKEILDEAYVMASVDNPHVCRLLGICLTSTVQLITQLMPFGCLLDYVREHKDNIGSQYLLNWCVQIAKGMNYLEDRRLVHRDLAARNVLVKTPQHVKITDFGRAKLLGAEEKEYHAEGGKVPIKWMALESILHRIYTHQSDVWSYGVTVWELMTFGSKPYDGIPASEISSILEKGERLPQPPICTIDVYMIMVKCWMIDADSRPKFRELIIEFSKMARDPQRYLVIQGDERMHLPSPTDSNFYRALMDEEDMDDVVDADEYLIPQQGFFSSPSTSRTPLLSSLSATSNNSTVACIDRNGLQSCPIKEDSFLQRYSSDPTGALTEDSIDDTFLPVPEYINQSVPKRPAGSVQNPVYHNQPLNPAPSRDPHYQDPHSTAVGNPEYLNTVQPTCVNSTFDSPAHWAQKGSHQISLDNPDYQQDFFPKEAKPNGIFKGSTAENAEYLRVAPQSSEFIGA
# Experiment summary: Biochemical EGFR inhibition assay, EGFR L858R
# Condition context: Caliper mobility shift; 1.0 mM ATP or ATP Km; read-out: Enz EGFR_L858R IC50
pIC50: −log10 of the molar value.
Readout kind: pIC50

Compound	Test result
COc1cc2ncnc(-c3cn(C)nc3-c3ccccc3F)c2nc1NC(=O)[C@]12COC[C@H]1C2 (single isomer, unassigned)	8.68
Cn1cc(-c2ncnc3cc(OC(F)F)c(NC(=O)C4CC4)cc23)c(-c2ccccc2)n1	8.48
CCc1cc2ncnc(-c3cn(C)nc3-c3ccccc3)c2nc1NC(=O)C12COCC1C2 (centres unmarked)	7.54
COc1cc2ncnc(-c3cn(C)nc3-c3ccc(F)cc3)c2nc1NC(=O)[C@]12CN(C)C[C@H]1C2(F)F (single isomer, unassigned)	8.55
COc1cc2ncnc(-c3cn(C)nc3-c3ccccc3)c2cc1OC(=O)N1C(C)CN(C)C[C@H]1C (stereo in doubt)	7.85
COc1cc2ncnc(-c3cn(C)nc3-c3ccccc3)c2cc1CO	8.41
COc1cc2ncnc(-c3cn(C)nc3-c3ccccc3)c2cc1O[C@@H]1CCN(C)C[C@H]1F	8.38
CCOc1cc2ncnc(-c3cn(C)nc3-c3ccc(F)cc3)c2nc1NC(=O)[C@@]12C[C@@H]1CN(C)C2 (single isomer, unassigned)	8.62
COc1cc2ncnc(-c3cn(C)nc3-c3ccccc3)c2cc1NC(=O)C12CC(F)(C1)C2	8.17
COc1cc2ncnc(-c3cn(C)nc3-c3ccccc3)c2nc1NC(=O)C12CCCN1CCC2	8.41
COc1cc2ncnc(-c3cn(C)nc3-c3ccc(F)cc3F)c2nc1NC(=O)[C@]12C[C@H]1CN(C)C2 (single isomer, unassigned)	8.64
Cc1n[nH]c(-c2ccccc2)c1-c1ncnc2cc(-c3cnn(C)c3)ccc12	8.57
[2H]C([2H])([2H])Oc1cc2ncnc(-c3cn(C([2H])([2H])[2H])nc3-c3ccccc3)c2nc1NC(=O)C1(C(F)(F)F)CC1	8.66
COc1cc2ncnc(-c3cn(CC(F)F)nc3-c3ccccc3)c2cc1[C@@H](C)O (single isomer, unassigned)	8.70
COc1cc2ncnc(-c3cnn(C(F)(F)F)c3-c3ccccc3)c2cc1NC(=O)C12CC(C1)C2	6.92
CCn1cc(-c2ncnc3cc(OC)c(NC(=O)[C@]45COC[C@H]4C5)cc23)c(-c2ccc(F)cc2)n1	8.54
CCn1cc(-c2ncnc3cc(OC)c(NC(=O)c4cccnc4)cc23)c(-c2ccccc2)n1	8.64
CCOc1cc2ncnc(-c3cn(C4CC4)nc3-c3ccccc3)c2cc1[C@H](C)O (single isomer, unassigned)	8.72
COc1cc2ncnc(-c3cn(CC(F)F)nc3-c3ccccc3)c2cc1OCCCN1CCOCC1	8.72
COc1cc2ncnc(-c3cn(C)nc3-c3ccccc3)c2cc1NC(=O)N1C[C@@H](C)N(C)C[C@@H]1C	8.39
